System: CCRIS mutagenicity, Ames/micronucleus/aberration tests
TEST DETAILS: CCRIS mutagenicity studies
RECORDED CONDITIONS: Test System: AMES SALMONELLA TYPHIMURIUM; Strain/Indicator: TA98; Metabolic Activation: RAT, LIVER, S-9, AROCLOR 1254
Activity calls are given as the source filed them. How the calls were made is not given here.
Outcomes: Y = active, N = inactive

compound=O=[N+]([O-])c1cc2c3c(c1)CCc1c4c(cc(c1-3)CC2)CCCC4 label_value=Y
compound="CC(C)NCC(O)c1ccc2ccccc2c1 (configuration not stated)" label_value=N
compound=Nc1ccc([N+](=O)[O-])cc1N label_value=Y
compound="CC(C)NCC(O)COc1cccc2[nH]ccc12 (configuration not stated)" label_value=N
compound=O=[N+]([O-])c1ccc2ccc3c4c(cc5ccc1c2c53)[C@H](O)[C@@H](O)C=C4 label_value=Y
compound=O=[N+]([O-])c1ccc2ccc3c4ccccc4cc4ccc1c2c43 label_value=Y
compound=O=C(O)COc1cc(Cl)c(Cl)cc1Cl label_value=N

###

Tested on: CCRIS mutagenicity, Ames/micronucleus/aberration tests
TEST DETAILS: CCRIS mutagenicity studies
RECORDED CONDITIONS: Test System: AMES SALMONELLA TYPHIMURIUM; Strain/Indicator: TA97A; Metabolic Activation: NONE; Method: STANDARD PLATE
Activity calls are given as the source filed them. No rule for the calls is given here.
Outcome codes: active, inactive

given_smiles=COC1=CC(=O)c2c(nc(C)c3c2[nH]c2ccccc23)C1=O label_value=active
given_smiles=Cc1cc(C)c(C)cc1C label_value=inactive
given_smiles=[Cl][Pd-2]([Cl])([Cl])([Cl])([Cl])[Cl] label_value=inactive
given_smiles=CC1=CC=C(C(C)C)CC1 label_value=inactive
given_smiles=Nc1cccc2cc3c(nc12)CCCC3 label_value=active

###

System: CCRIS mutagenicity, Ames/micronucleus/aberration tests
TEST DETAILS: CCRIS mutagenicity studies
RECORDED CONDITIONS: End Point: IN VITRO CHROMOSOMAL ABERRATIONS; Test System: HUMAN PERIPHERAL LYMPHOCYTES; Metabolic Activation: NONE
The source made the active and inactive calls. How the calls were made is not given here.
Classes used: active, inactive

given_smiles=C[C@]12CCC(=O)C=C1[C@@H]1C[C@@H]1[C@H]1[C@@H]3[C@@H]4C[C@@H]4[C@@]4(CCC(=O)O4)[C@@]3(C)CC[C@@H]12 label_value=inactive
given_smiles=O=[N+]([O-])c1ccc(Cl)c(Cl)c1 label_value=inactive
given_smiles=Oc1ccc(O)c(O)c1 label_value=active
given_smiles=C[C@]12CC[C@@H]3c4ccc(O)cc4CC[C@H]3[C@@]13CC[C@]2(O)[C@H](O)C3 label_value=inactive
given_smiles=Oc1ccc(O)cc1 label_value=active
given_smiles=CN(C)c1ccc([C@H]2C[C@]3(C)[C@@H](CC[C@]3(O)CCCO)[C@@H]3CCC4=CC(=O)CCC4=C32)cc1 label_value=inactive

###

Tested on: CCRIS mutagenicity, Ames/micronucleus/aberration tests
TEST DETAILS: CCRIS mutagenicity studies
RECORDED CONDITIONS: Test System: E. COLI; Strain/Indicator: WP2 (HCR); Metabolic Activation: S-9; Method: STANDARD PLATE
Calls of active or inactive are those of the source. How the calls were made is not given here.
Outcomes: active, inactive

given_smiles=O=c1[nH]cc(F)c(=O)[nH]1 label_value=inactive
given_smiles=CN(Cc1cnc2nc(N)nc(N)c2n1)c1ccc(C(=O)N[C@@H](CCC(=O)O)C(=O)O)cc1 label_value=inactive
given_smiles=C[C@@H]1C[C@@]2(C)[C@@H](CC[C@@H]3[C@@H]2CC[C@]2(C)[C@@H](O)CC[C@@H]32)CC1=O label_value=inactive
given_smiles=CS(=O)(=O)OCCCCOS(C)(=O)=O label_value=active

###

Test system: CCRIS mutagenicity, Ames/micronucleus/aberration tests
TEST DETAILS: CCRIS mutagenicity studies
RECORDED CONDITIONS: Test System: AMES SALMONELLA TYPHIMURIUM; Strain/Indicator: TA1537; Metabolic Activation: RAT, LIVER, S-9, AROCLOR 1254; Method: STANDARD PLATE
Calls of active or inactive are those of the source. No rule for the calls is given here.
Classes used: TRUE (active), FALSE (inactive)

given_smiles=CC(=O)OC(C)=O label_value=FALSE
given_smiles=CCCOC(=O)c1cc(O)c(O)c(O)c1 label_value=FALSE
given_smiles=CCCCNC(=O)n1c(NC(=O)OC)nc2ccccc21 label_value=FALSE
given_smiles=CC(C)N=C=NC(C)C label_value=FALSE
given_smiles=O=C1CN=C(c2ccccc2)c2cc([N+](=O)[O-])ccc2N1 label_value=FALSE
given_smiles=O=[N+]([O-])C1=Cc2ccc3ccc4cccc5cc1c2c3c45 label_value=TRUE
given_smiles=C[C@]12CC[C@@H]3c4ccc(O)cc4CC[C@H]3[C@@]13CC[C@]2(O)[C@H](O)C3 label_value=FALSE
given_smiles=CNc1ccc(NCCO)c2c1C(=O)c1ccccc1C2=O label_value=TRUE
given_smiles=O=[N+]([O-])c1ccccc1C(F)(F)F label_value=FALSE
given_smiles=CSC[C@H](NC(=O)COc1cccc2cnccc12)C(=O)N[C@@H](Cc1ccccc1)[C@H](O)C(=O)N1CSC[C@H]1C(=O)NC(C)(C)C label_value=FALSE
given_smiles=COCCCN label_value=FALSE
given_smiles=Nc1cc([N+](=O)[O-])c(N)cc1F label_value=TRUE

###

System: CCRIS mutagenicity, Ames/micronucleus/aberration tests
TEST DETAILS: CCRIS mutagenicity studies
RECORDED CONDITIONS: Test System: AMES SALMONELLA TYPHIMURIUM; Strain/Indicator: TA98; Metabolic Activation: NONE; Method: PREINCUBATION
The source made the active and inactive calls. No rule for the calls is given here.
Labels: active, inactive

compound=Brc1c(Br)c(Br)c(Oc2c(Br)c(Br)c(Br)c(Br)c2Br)c(Br)c1Br label_value=inactive
compound=Cl/C=C/Cl label_value=inactive
compound=Nc1ccc([N+](=O)[O-])cc1N label_value=active
compound=c1ccc2c(c1)-c1cc3ccccc3cc1[C@H]1O[C@@H]21 label_value=active
compound=Nc1ccc(Cl)cc1N label_value=inactive
compound=CN(C)c1ncnc2nc[nH]c12 label_value=inactive
compound=COC(=O)c1cc(Cc2ccc(N)c(C(=O)OC)c2)ccc1N label_value=inactive
compound=Nc1nc(-c2ccc([N+](=O)[O-])cc2)nc2c1ncn2-c1ccc([N+](=O)[O-])cc1 label_value=active
compound=Nc1ccc(Oc2ccc(Oc3ccc(N)cc3)cc2)cc1 label_value=inactive
compound=CCCOC(=O)c1cc(O)c(O)c(O)c1 label_value=inactive
compound=NNC(=O)c1[nH]c2ccccc2c1N label_value=active
compound="CCCCCCC(C)COC(=O)c1ccccc1C(=O)OCC(C)CCCCCC (stereo unspecified)" label_value=inactive
compound=C[C@H](CCC(=O)O)[C@H]1CC[C@H]2[C@@H]3[C@H](O)C[C@@H]4C[C@H](O)CC[C@]4(C)[C@H]3C[C@H](O)[C@]12C label_value=inactive
compound=COc1ccc(CN(CCN(C)C)c2ccccn2)cc1 label_value=inactive
compound=CN1C[C@H](C(=O)N[C@]2(C)O[C@@]3(O)[C@@H]4CCCN4C(=O)[C@H](Cc4ccccc4)N3C2=O)C=C2c3cccc4[nH]cc(c34)C[C@H]21 label_value=inactive
compound=C=C(C)CCl label_value=inactive
compound=CN(Cc1cnc2nc(N)nc(N)c2n1)c1ccc(C(=O)N[C@@H](CCC(=O)O)C(=O)O)cc1 label_value=inactive
compound=CC(=O)OCc1ccc2c(c1)OCO2 label_value=inactive
compound=O=[N+]([O-])c1cccc(Br)c1 label_value=inactive
compound=ClC(Cl)(Cl)C(Cl)(Cl)Cl label_value=inactive
compound=[O-][n+]1cc2cnccc2cn1 label_value=active
compound=OCCCCl label_value=inactive
compound=Cc1nccc2c1[nH]c1ccccc12 label_value=inactive
compound=Cc1cccc(C(=O)Cl)c1 label_value=inactive
compound=O=[N+]([O-])c1ccc2ccc3cc4ccccc4c4ccc1c2c34 label_value=active
compound=CCCCOCCOC(=O)COc1ccc(Cl)cc1Cl label_value=inactive

###

System: CCRIS mutagenicity, Ames/micronucleus/aberration tests
TEST DETAILS: CCRIS mutagenicity studies
RECORDED CONDITIONS: Test System: AMES SALMONELLA TYPHIMURIUM; Strain/Indicator: TA1535; Metabolic Activation: RAT, LIVER, S-9, AROCLOR 1254; Method: STANDARD PLATE
Active and inactive are the calls of the source. How the calls were made is not given here.
Classes used: yes (1) for active, no (0) for inactive

given_smiles=O=C(O)[C@H](O)[C@@H](O)C(=O)O system_name="CCRIS mutagenicity, Ames/micronucleus/aberration tests" label_value="no (0)"
given_smiles=C[C@]12CC[C@H](O)C[C@@H]1CC[C@@H]1[C@@H]2CC[C@]2(C)NC(=O)CC[C@@H]12 system_name="CCRIS mutagenicity, Ames/micronucleus/aberration tests" label_value="no (0)"
given_smiles=O=c1[nH]c(=O)n([C@H]2C[C@H](O)[C@@H](CO)O2)cc1CCCl system_name="CCRIS mutagenicity, Ames/micronucleus/aberration tests" label_value="yes (1)"
given_smiles=CCCCON=O system_name="CCRIS mutagenicity, Ames/micronucleus/aberration tests" label_value="yes (1)"
given_smiles=CC(=O)OC(C)=O system_name="CCRIS mutagenicity, Ames/micronucleus/aberration tests" label_value="no (0)"
given_smiles=CCCCCCCCC=O system_name="CCRIS mutagenicity, Ames/micronucleus/aberration tests" label_value="no (0)"
given_smiles=CSC(C)(C)/C=N/O system_name="CCRIS mutagenicity, Ames/micronucleus/aberration tests" label_value="no (0)"
given_smiles=O=[N+]([O-])c1cccc(OS(=O)(=O)c2cccc3cccnc23)c1 system_name="CCRIS mutagenicity, Ames/micronucleus/aberration tests" label_value="no (0)"
given_smiles=C=CC#N system_name="CCRIS mutagenicity, Ames/micronucleus/aberration tests" label_value="no (0)"
given_smiles=Nc1ccc(N)c2c1C(=O)c1c(N)ccc(N)c1C2=O system_name="CCRIS mutagenicity, Ames/micronucleus/aberration tests" label_value="no (0)"
given_smiles=CC(=O)C(Cl)(Cl)Cl system_name="CCRIS mutagenicity, Ames/micronucleus/aberration tests" label_value="yes (1)"
given_smiles=C#C[C@]1(O)CC[C@H]2[C@@H]3CCC4=CC(=O)CC[C@@H]4[C@H]3CC[C@@]21CC system_name="CCRIS mutagenicity, Ames/micronucleus/aberration tests" label_value="no (0)"
given_smiles=S=C([S-])NCCNC(=S)[S-].[Zn+2] system_name="CCRIS mutagenicity, Ames/micronucleus/aberration tests" label_value="no (0)"
